Target: UniProt Q9UGL1
Sequence (Q9UGL1 2-751): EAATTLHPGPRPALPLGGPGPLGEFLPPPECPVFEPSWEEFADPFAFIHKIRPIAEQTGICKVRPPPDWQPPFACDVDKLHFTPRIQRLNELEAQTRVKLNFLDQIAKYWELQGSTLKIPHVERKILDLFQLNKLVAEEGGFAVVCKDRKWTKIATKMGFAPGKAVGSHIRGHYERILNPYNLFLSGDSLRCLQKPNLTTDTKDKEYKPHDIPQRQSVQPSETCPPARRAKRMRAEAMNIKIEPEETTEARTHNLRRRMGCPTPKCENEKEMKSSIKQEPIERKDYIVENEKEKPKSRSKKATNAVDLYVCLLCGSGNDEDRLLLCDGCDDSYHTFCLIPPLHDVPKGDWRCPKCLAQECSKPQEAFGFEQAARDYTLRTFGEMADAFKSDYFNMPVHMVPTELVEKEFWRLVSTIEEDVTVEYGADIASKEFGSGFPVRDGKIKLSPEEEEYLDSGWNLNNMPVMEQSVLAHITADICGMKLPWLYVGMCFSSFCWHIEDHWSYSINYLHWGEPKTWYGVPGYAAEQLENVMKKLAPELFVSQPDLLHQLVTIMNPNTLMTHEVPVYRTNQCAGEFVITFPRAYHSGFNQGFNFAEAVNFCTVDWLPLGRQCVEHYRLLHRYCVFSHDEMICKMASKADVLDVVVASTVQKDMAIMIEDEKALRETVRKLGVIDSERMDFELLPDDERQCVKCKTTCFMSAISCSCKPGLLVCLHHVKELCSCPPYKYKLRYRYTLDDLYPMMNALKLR
In this section we review reported IC50 values for a set of compounds.

Worked set:
[[record]]
compound = "Cc1ccc(CNc2cnccc2C(=O)O)o1 [Example 40]"
measurement_kind = "IC50"
test_result = "≤ 100 nM"

[[record]]
compound = "COc1cc(Cl)ccc1CNc1cnccc1C(=O)O [Example 20]"
measurement_kind = "IC50"
test_result = "≤ 100 nM"


What reported IC50 corresponds to O=C(O)c1ccncc1NCc1ccc(C2CC2)cc1 [Example 25] on UniProt Q9UGL1? ≤ 100 nM

# returns recorded IC50 (system: UniProt Q9UGL1) for CC1(CNc2cnccc2C(=O)O)CCCc2ccccc21 (stereo not shown) [Example 49] 100 to 1000 nM

What value of IC50 on UniProt Q9UGL1 does O=C(O)c1ccncc1NCc1ccc(Oc2ccccc2)cc1 [Example 12] have? ≤ 100 nM

Identify the measured IC50 of O=C(O)c1ccncc1NCC1CCCc2ccccc21 (stereo not shown) [Example 46] for UniProt Q9UGL1. ≤ 100 nM

Param readout = IC50; param system = UniProt Q9UGL1; param query = O=C(O)c1ccncc1NCC12CC3CC(CC(C3)C1)C2 [Example 42] ; response: value 100 to 1000 nM

---

pIC50: −log10 of the molar value.
Measurement record for JMJD2C (Homo sapiens (Human), UniProt Q9H3R0); quantity recorded: pIC50.

[[record]]
compound = "O=C(O)c1ccncc1NCc1ccc(Cl)cc1C1CC1 [Example 26]"
test_result = "6.00 to 7.00"

[[record]]
compound = "O=C(O)c1ccncc1NC[C@H]1CCOc2cc(-c3ccc(F)cc3)ccc21 [Example 93]"
test_result = "6.00 to 7.00"

[[record]]
compound = "O=C(O)c1ccncc1NCc1ccc(Cl)cc1O [Example 21]"
test_result = "≥ 7.00"

[[record]]
compound = "O=C(O)c1ccncc1NCc1ccc(C2CC2)cc1 [Example 25]"
test_result = "6.00 to 7.00"


Okay, next one:
Find the measured pIC50: item COc1ccc2c(c1F)CCCC2CNc1cnccc1C(=O)O (centres unmarked) [Example 102] , target or system JMJD2C (Homo sapiens (Human), UniProt Q9H3R0). 6.00 to 7.00

---

# IC50 per record follows
Target: UniProt Q9H3R0

Answered examples (4):
[[record]]
smiles_structure = "O=C(O)c1ccncc1NC[C@H]1CCCc2c(F)cccc21"
measurement_kind = "IC50"
test_result = "≤ 100 nM"

[[record]]
smiles_structure = "Cc1cccc(CNc2cnccc2C(=O)O)c1C1CC1"
measurement_kind = "IC50"
test_result = "≤ 100 nM"

[[record]]
smiles_structure = "O=C(O)c1ccncc1NCc1cccc(C(F)(F)F)c1"
measurement_kind = "IC50"
test_result = "≤ 100 nM"

[[record]]
smiles_structure = "O=C(O)c1ccncc1NC[C@@H]1CCOc2cc(-c3ccc(F)cc3)ccc21"
measurement_kind = "IC50"
test_result = "1000 to 10000 nM"


API: value(readout= IC50, system= UniProt Q9H3R0, query= `Cc1ccc(CNc2cnccc2C(=O)O)cc1` ) ≤ 100 nM

---

pIC50: −log10 of the molar value.
# collection of pIC50 values tested on UniProtKB Q9UGL1

Check out these entries, answers already filled in.
[[record]]
smiles_structure = "O=C(O)c1ccncc1NCc1ccccc1Oc1ccccc1"
system_under_test = "UniProtKB Q9UGL1"
test_result = "≥ 7.00"

[[record]]
smiles_structure = "O=C(O)c1ccncc1NCc1ccc(Cl)cc1C1CC1"
system_under_test = "UniProtKB Q9UGL1"
test_result = "≥ 7.00"


Attention now turns to another entry.
Give pIC50 (UniProtKB Q9UGL1) of the following compound: `O=C(O)c1ccncc1NCc1ccc(C(F)(F)F)cc1C1CC1` ≥ 7.00
